Listed here: items and their measured pIC50.
# TESTED_TARGET: Replicase polyprotein 1ab (Severe acute respiratory syndrome coronavirus 2, UniProt P0DTD1)
# PROCEDURE_DETAILS: Functional biochemical assay to identify treatments for viral infectious disease that targets SARS-COV-2 nsp3 macrodomain, whereby the mechanism of action displaces an ADP-Ribose modified peptide from the binding site. Utilizing a time-resolved fluorescence method to measure binding by reading the emitted fluorescence intensity in two wavelengths.
pIC50: −log10 of the molar value.
QUANTITY_NAME: pIC50

COMPOUND: O=C(N[C@@H](Cc1ccc(Br)cc1)C(=O)O)c1ncnc2[nH]ccc12
QUANTITY_NAME: pIC50
VALUE_MEASURED: < 4.00
//
COMPOUND: COC[C@@H]1C[C@@H]1CNc1ccc([C@@H](CC(=O)O)NC(=O)c2c[nH]c3ncncc23)cc1
QUANTITY_NAME: pIC50
VALUE_MEASURED: < 4.00
//
COMPOUND: Cc1[nH]c2ncnc(NC(=O)C3CC(C(F)(F)F)C3)c2c1C (stereo not given)
QUANTITY_NAME: pIC50
VALUE_MEASURED: < 4.00
//
COMPOUND: O=C(Nc1ccc(C(=O)N[C@@H]2c3ccccc3C[C@@H]2C(=O)O)cc1)c1ccc(N2CCC(O)CC2)cc1
QUANTITY_NAME: pIC50
VALUE_MEASURED: < 4.00
//
COMPOUND: CC(C)[C@H](Nc1cc(N2CCNCC2)ncn1)c1ccc2c(c1)S(=O)(=O)CCC2
QUANTITY_NAME: pIC50
VALUE_MEASURED: < 4.00
//
COMPOUND: CC(C)[C@H](Nc1ncnc2c1NCCO2)c1ccc2c(c1)S(=O)(=O)CCC2
QUANTITY_NAME: pIC50
VALUE_MEASURED: < 4.00
//
COMPOUND: CC(C)[C@@H](Nc1ncnc2[nH]c(-c3ccc(S(N)(=O)=O)c4nsnc34)cc12)c1ccc2c(c1)S(=O)(=O)CCC2
QUANTITY_NAME: pIC50
VALUE_MEASURED: 6.62
//
COMPOUND: O=C(O)[C@@H]1C[C@H](F)CN1c1ncnc2[nH]ccc12
QUANTITY_NAME: pIC50
VALUE_MEASURED: < 4.00
//
COMPOUND: COc1ccc(Nc2ncnc3[nH]ccc23)cc1OC
QUANTITY_NAME: pIC50
VALUE_MEASURED: < 4.00
//
COMPOUND: CO[C@@H]1C[C@@H](C(=O)O)N(c2ncnc3[nH]ccc23)C1
QUANTITY_NAME: pIC50
VALUE_MEASURED: < 4.00

====

# TESTED_TARGET: Replicase polyprotein 1ab (Severe acute respiratory syndrome coronavirus 2)
# PROCEDURE_DETAILS: Functional biochemical assay to identify treatments for viral infectious disease that targets SARS-COV-2 nsp3 macrodomain, whereby the mechanism of action displaces an ADP-Ribose modified peptide from the binding site. Utilizing a time-resolved fluorescence method to measure binding by reading the emitted fluorescence intensity in two wavelengths.
QUANTITY_NAME: IC50

SMILES_STRING: CC(C)[C@@H](Nc1ccnc2[nH]ccc12)c1ccc2c(c1)S(=O)(=O)CCC2
VALUE_MEASURED: > 99.5 µM

SMILES_STRING: COc1ccc2c(NC(=O)c3ccc(NC(=O)NC4CC4)cc3)c(C(=O)O)sc2c1
VALUE_MEASURED: > 99.5 µM

SMILES_STRING: OC[C@@]1(Cc2ccc(F)cc2)CCN(c2ncnc3[nH]ccc23)C1
VALUE_MEASURED: > 99.5 µM

SMILES_STRING: c1ccc2c(c1)OCC[C@@H]2Nc1ncnc2[nH]ccc12
VALUE_MEASURED: > 99.5 µM

SMILES_STRING: CC(C)[C@@H](Nc1ncnc2[nH]c(-c3cc4c(C#N)cccc4[nH]3)cc12)c1ccc2c(c1)OCCO2
VALUE_MEASURED: > 99.5 µM

SMILES_STRING: CCNC(=O)c1cc2c(N[C@@H](C(=O)NC3CCOCC3)C(C)C)ncnc2[nH]1
VALUE_MEASURED: > 99.5 µM

SMILES_STRING: Cn1ncc2c(NCc3ncccc3O)ncnc21
VALUE_MEASURED: > 124 µM

SMILES_STRING: C[C@@H]1Oc2ccc(Nc3ncnc4[nH]ccc34)cc2NC1=O
VALUE_MEASURED: > 99.5 µM

SMILES_STRING: O=C(O)[C@@H](Nc1ncnc2[nH]ccc12)C1CC(F)(F)C1
VALUE_MEASURED: > 99.5 µM

SMILES_STRING: COc1cc(Nc2ccc(C(=O)N[C@@H]3c4cccc(O)c4C[C@H]3C(=O)O)cc2)[nH]n1
VALUE_MEASURED: > 99.5 µM

SMILES_STRING: O=C(c1cccc(Br)c1)N1CCC(c2ccn3ncc(C(=O)N4CCCCC4)c3c2)CC1
VALUE_MEASURED: > 124 µM

SMILES_STRING: O=C(O)[C@@H]1[C@@H](c2ccccc2)CCN1c1ncnc2[nH]ccc12
VALUE_MEASURED: > 99.5 µM

SMILES_STRING: O=C(O)C[C@@H](NC(=O)c1ccnc(-n2cccc2)c1)c1ccc(Br)cc1
VALUE_MEASURED: > 99.5 µM

SMILES_STRING: CC(C)[C@H](Nc1ncnc2c1CNCC2)c1ccc2c(c1)S(=O)(=O)CCC2
VALUE_MEASURED: > 99.5 µM

SMILES_STRING: CCNC(=O)c1cc2c(N[C@@H](c3ccc4c(c3)CCN4C(=O)C3CC3)C(C)C)ncnc2[nH]1
VALUE_MEASURED: 24.6 µM

SMILES_STRING: CC(C)[C@@H](Nc1ncnc2[nH]c(C(=O)NCCn3cncn3)cc12)c1ccc2c(c1)OCCO2
VALUE_MEASURED: 1.78 µM

SMILES_STRING: O=C(O)c1cn(CCNC(=O)c2ncnc3[nH]ccc23)cn1
VALUE_MEASURED: > 99.5 µM

SMILES_STRING: NS(=O)(=O)C[C@@H](NC(=O)c1ncnc2[nH]ccc12)c1ccc(Br)cc1
VALUE_MEASURED: > 99.5 µM

SMILES_STRING: c1ccc(-c2cc(CNc3ncnc4[nH]ccc34)on2)cc1
VALUE_MEASURED: > 124 µM

SMILES_STRING: CC(C)[C@H](Nc1ncnc2c1CCO2)c1ccc2c(c1)S(=O)(=O)CCC2
VALUE_MEASURED: > 99.5 µM
